Reference source: paper PMC5540273

- Test system: MEK5
- Construct: gene MAP2K5
- Measurement conditions: concentration: 1 μM, replicates: in singlicate; n = 1;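 note: KINOMEscan kinase panel screen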
We label by threshold. Values of %Inh strictly beneath 20% are Criterion met. Values of 20% and up are Criterion not met.

- Compound: "CCc1ccc(-c2ccc3c(c2)-c2nn(C)cc2S(=O)(=O)N3C)cc1"
  Class label: "Criterion not met"
- Compound: "COc1ccc(-c2coc3ccc(-c4nnc(SCc5cccc(C#N)c5)o4)cc23)cc1"
  Class label: "Criterion not met"
- Compound: "COc1ccc(-c2cc3c(C)nc(N)nc3n([C@H]3CC[C@H](O)CC3)c2=O)cn1"
  Class label: "Criterion met"
- Compound: "CCC(=O)c1c(-c2ccccc2)c2cc(Cl)ccc2c(=O)n1Cc1ccc(C(=O)O)cc1"
  Class label: "Criterion met"
- Compound: "CCCC(=O)Nc1n[nH]c2ncc(-c3cccc4ccccc34)cc12 [SB-642057]"
  Class label: "Criterion met"
- Compound: "CN1C(=O)C(Nc2ccccc2)=C(c2ccccc2)C1=O [SB-300079]"
  Class label: "Criterion not met"
- Compound: "Nc1ncnc2c1ncn2-c1cccc(F)c1 [SKF-97560]"
  Class label: "Criterion not met"

###

- Tested on: CAMK1D
- Measurement conditions: concentration: 1 μM, replicates: in singlicate; n = 1

- Smiles code: "COc1ccc(-c2cc3c(C)nc(N)nc3n([C@H]3CC[C@H](O)CC3)c2=O)cn1"
  %Inh: "0%"
- Smiles code: "Nc1ncnc2c1ncn2-c1cccc(F)c1"
  %Inh: "0%"
- Smiles code: "CCn1c(-c2ccoc2)nc2cnccc21"
  %Inh: "8%"
- Smiles code: "COc1ccc(-n2cnc3c(N)ncnc32)cc1"
  %Inh: "10%"
- Smiles code: "Cc1cccc(-c2cc(-c3c[nH]nc3-c3ccccn3)ccn2)c1"
  %Inh: "10%"
- Smiles code: "C[C@@H]1CC[C@H](C(=O)NC2CCCCC2)CN1c1cc(-c2ccc3c(N)n[nH]c3c2)nc(N)n1"
  %Inh: "29%"
- Smiles code: "Cc1cc(Nc2nc(-c3cccc(C)n3)nc3ccccc23)ccn1"
  %Inh: "0%"

###

- Tested on: CAMK2G
- Measurement conditions: concentration: 1 μM, replicates: in singlicate; n = 1
Below is a list of entries, each paired with its recorded %Inh value.

- Compound: "Cc1nc(N(C)[C@H]2CN(C(=O)CC#N)CC[C@H]2C)c2cc[nH]c2n1"
  %Inh, %: 12
- Compound: "O=C(Nc1n[nH]c2nc(-c3ccccc3)c(Br)cc12)C1CC1 [SB-708998]"
  %Inh, %: 4
- Compound: "FC(F)(F)c1ccc(-c2ncn(CCCN3CCOCC3)c2-c2ccncc2)cc1 [SB-217780]"
  %Inh, %: 21

###

- Test system: GSK3B
- Measurement conditions: concentration: 1 μM, replicates: in singlicate; n = 1
Below is a list of entries, each paired with its recorded %Inh value.

- Molecule: "Cc1nnc(-c2ccc3ncn(-c4ccc(S(C)=O)cc4)c3c2)o1 (stereo not drawn)"
  Unit text: "%"
  %Inh: 36
- Molecule: "COc1cccc(C2=C(N(C)c3ccccc3)C(=O)NC2=O)c1 [SB-334865]"
  Unit text: "%"
  %Inh: 24
- Molecule: "COC(=O)c1c(-c2ccccc2)c2cc(C)ccc2c(=O)n1Cc1ccccc1"
  Unit text: "%"
  %Inh: 0
